measured endpoint: melting point

[[record]]
compound = "COC(c1ccccc1)c1cc(C(F)(F)F)nc2c(C(F)(F)F)cccc12 (centres undefined)"
reported = "115 to 117 °C"

[[record]]
compound = "CCOc1cnc(N[N+](=O)[O-])[nH]c1=O"
reported = "189 to 192 °C"

[[record]]
compound = "CCSc1nnc(-c2ccccc2)n1Cc1ccc(N)cc1"
reported = "126 to 127 °C"

[[record]]
compound = "Cc1cc2cnn(CCO)c2cc1Nc1nnc2n1[C@H](c1ccc(F)cc1)COC2"
reported = "215 to 217 °C"

[[record]]
compound = "Oc1ccc(-c2cc3cc(O)cc(Cn4ccnc4)c3o2)cc1"
reported = "269 to 271 °C"

[[record]]
compound = "Cc1c(C)c2c(c(C)c1O)CC[C@@](C)(CCBr)O2"
reported = "120 °C"

[[record]]
compound = "CSCC(C)(C)NC(=O)c1c(I)cccc1C(=O)Nc1ccc(-c2nnnn2C2CC2)cc1C"
reported = "131 to 132 °C"

[[record]]
compound = "CC(C)c1cc(OCCOCc2ccccc2)cc2c1C(=O)N(CSc1ccccc1)S2(=O)=O"
reported = "98 to 99 °C"

[[record]]
compound = "CN1C(=O)CN=C(c2ccccc2F)c2cc(NC(=O)NC(C)(C)CO)ccc21"
reported = "162 to 176 °C"

[[record]]
compound = "OC(c1ccccc1)(c1ccccc1)C1CCN(CCCOc2ccccc2)CC1"
reported = "87 to 88 °C"

[[record]]
compound = "CN(c1cc(OCC(=O)O)cc2cc(C3=NCC(CN4CCSCC4)S3)[nH]c12)S(=O)(=O)c1ccccn1 (centres undefined)"
reported = "132 to 134 °C"

[[record]]
compound = "O=C(CCCCCNC(=O)c1ccc2ccccc2c1)NO"
reported = "96 to 98 °C"

[[record]]
compound = "CN1C(=O)CNC(c2cccc(Cl)c2)c2cc(C(O)(c3ccc(Cl)cc3)c3cncn3C)ccc21 (centres undefined)"
reported = "208 °C"

[[record]]
compound = "CCCCCCCCOc1ccc(C(=O)Oc2ccc(-c3ccc(O)cc3)cc2)cc1"
reported = "183 °C"

[[record]]
compound = "CCOC(=O)CCC(=O)[C@H](Cc1ccccc1)NC(=O)c1ccccc1"
reported = "112 to 114 °C"

[[record]]
compound = "CC(=O)CN1CCc2c(c(=O)oc3cc4c(cc23)OCO4)C1"
reported = "167 to 170 °C"

[[record]]
compound = "ON=C(Cn1ccnc1)c1ccc(Cl)cc1"
reported = "185 to 186 °C"

[[record]]
compound = "Nc1ncnc2ncn(COCCO)c12"
reported = "122 to 123 °C"

[[record]]
compound = "CCC(C(C)=CC(CNC(=O)c1nccnc1N)=NO)[N+](=O)[O-] (centres undefined)"
reported = "139 to 141 °C"

[[record]]
compound = "Cn1c(-c2ccc(OC3CCN(C4CCCC4)CC3)cc2)nc2ncccc2c1=O"
reported = "175 to 177 °C"

[[record]]
compound = "CCCCC#CCC#CCC#CCCCCCCC(=O)O"
reported = "48.5 to 49.5 °C"

[[record]]
compound = "COc1ccccc1SCC1NCCS1 (centres undefined)"
reported = "111 to 112 °C"

[[record]]
compound = "C#CCN(C)c1nccc(Oc2ccc(NC(=O)c3cc(F)cc(N4CCOCC4)c3)c3ccccc23)n1"
reported = "97 to 98 °C"

[[record]]
compound = "O=C(Nc1ccc([N+](=O)[O-])cc1)c1ccc(Nc2ccncc2)cc1"
reported = "298 to 302 °C"

[[record]]
compound = "O=c1c2cccc3c2n(c(=O)n1CC(O)CO)-c1cc(C(F)(F)F)ccc1S3(=O)=O (centres undefined)"
reported = "223 to 226 °C"

[[record]]
compound = "Nc1cccc(NC(=O)OCc2cc3cc(-c4ccc(F)cc4)ccc3o2)c1C(=O)O"
reported = "176 to 178 °C"

[[record]]
compound = "O=C(Nc1ccc(N2CCC2)nc1)c1cc2cc(C(F)(F)F)cnc2n1Cc1cccc(F)c1"
reported = "243 to 244 °C"

[[record]]
compound = "NC(=O)C(Sc1ccccc1)c1cccc(C(=O)c2ccc(Cl)cc2)c1N (centres undefined)"
reported = "189 to 191 °C"

[[record]]
compound = "Cc1cccc2c(-c3ccc(Cl)cc3)noc12"
reported = "88 to 90 °C"

[[record]]
compound = "CSC(=S)C1(c2ccc3ccccc3n2)CCCS1 (centres undefined)"
reported = "72 °C"

[[record]]
compound = "O=S(=O)(Nc1ccc(Cl)cc1-c1nc2ccccc2[nH]1)c1ccc(Cl)cc1"
reported = "225 to 228 °C"

[[record]]
compound = "COc1cccc(NC(=O)NCc2ccc(Nc3n[nH]c4ncnc(Nc5cccc(Cl)c5)c34)cc2)c1"
reported = "157 to 160 °C"

[[record]]
compound = "CCc1ccc(COc2ccc(CC(NC(=O)c3cc4cc(-c5ccc(Cl)cc5)ccc4s3)C(=O)O)cc2)cc1 (centres undefined)"
reported = "205 °C"

[[record]]
compound = "COc1cc(OC)nc(C2(Cl)OC(=O)c3ncccc32)n1 (centres undefined)"
reported = "146 to 148 °C"

[[record]]
compound = "COC(=O)c1cccc(C=Cc2cccc(C(=O)OC)c2)c1"
reported = "105 to 107 °C"

[[record]]
compound = "CCCc1cc(O)nc(-c2ccncc2)n1"
reported = "173 to 174 °C"

[[record]]
compound = "COc1ccc(-c2ccc([N+](=O)[O-])cc2)cc1OC1CC2CCC1C2 (centres undefined)"
reported = "134 to 135 °C"

[[record]]
compound = "CCOC(=O)/C=C/c1cn(-c2ccccc2)nc1OCc1ccc(OCc2nc(-c3ccccc3)oc2C)c(OC)c1"
reported = "194 to 195 °C"

[[record]]
compound = "COc1cc(OC)cc(N2CCN(C(=O)N(CC(=O)O)c3cc(C)c(C)cc3OC)CC2)c1"
reported = "188 to 189 °C"

